- test.target: rat mAChR M4 (Rattus norvegicus)
- Sequence (P08485 whole entry): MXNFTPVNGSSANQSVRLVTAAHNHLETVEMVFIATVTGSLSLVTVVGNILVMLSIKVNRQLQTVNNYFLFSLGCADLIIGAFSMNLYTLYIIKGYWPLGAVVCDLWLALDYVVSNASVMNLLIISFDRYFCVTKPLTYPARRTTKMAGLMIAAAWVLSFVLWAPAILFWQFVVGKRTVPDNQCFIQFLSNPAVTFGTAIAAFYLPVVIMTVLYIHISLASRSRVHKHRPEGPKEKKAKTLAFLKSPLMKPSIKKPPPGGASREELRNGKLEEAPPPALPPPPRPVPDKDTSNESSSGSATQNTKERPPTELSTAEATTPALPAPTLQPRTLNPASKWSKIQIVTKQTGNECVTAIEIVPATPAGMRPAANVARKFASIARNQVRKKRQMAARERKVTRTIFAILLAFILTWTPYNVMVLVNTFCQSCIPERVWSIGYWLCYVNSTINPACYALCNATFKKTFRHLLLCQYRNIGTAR
- experiment.summary: mAChR M4 cell-based functional assay (calcium flux), rat M4
- condition.set: read-out: Rat M4 EC50; CHO-K1 rM4-Gqi5 cells; calcium flux; increase in EC20 acetylcholine response
pEC50: −log10 of the molar value.
endpoint.name: pEC50

Cc1nnc2sc3c(N4CC(c5ccncc5)C4)ncnc3c2c1C = 6.73

1 = Cc1cnc2sc3c(N4CC5(COC5)C4)ncnc3c2c1
2 = Cc1cnc2sc3c(NC4CN(c5ncc(C(F)(F)F)cn5)C4)ncnc3c2c1
3 = Cc1nnc2sc3c(N4CCN(C5CC5)CC4)ncnc3c2c1C
4 = Cc1nnc2sc3c(N4CCCCC4)ncnc3c2c1C
5 = Cc1nnc2sc3c(NC4CN(c5ncc(C(F)(F)F)cn5)C4)ncnc3c2c1C
Inquiry: List from greatest to least pEC50. Lab note: record answer as labels in requested order.
Reply text: 5, 4, 2, 3, 1
